Each recorded value in this set is attributed to patent US20240368267A1.

Consider the following binders and their measured koff readings.
- target_or_test_system: T1, recombinant human IL-6 (human, UniProt P05231 30-212)
- T1 construct: bought protein; also called interleukin-6
- T1 sequence (P05231 30-212 limits assumed): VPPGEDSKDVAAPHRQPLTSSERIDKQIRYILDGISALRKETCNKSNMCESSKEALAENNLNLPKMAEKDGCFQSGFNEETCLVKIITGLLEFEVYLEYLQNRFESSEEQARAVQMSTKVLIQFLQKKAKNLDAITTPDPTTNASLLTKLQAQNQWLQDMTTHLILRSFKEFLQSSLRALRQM
- experimental_details: Biacore, Fab lysate over IL-6 chip, 25 C
quantity_name: koff (s⁻¹)

>>> reported_measurement("anti-IL-6 Fab, heavy chain L100Q (Fab, V domains shown, built as m22 plus the named change) VH: EVQLVESGGGLVQPGGSLRLSCAASGFTFSPFAMSWVRQAPGKGLEWVAKISPGGSWTYYSDTVTGRFTFSLDTSKSTAYLQMNSLRAEDTAVYYCARQQWGYYALDIWGQGTLVTVSS VL: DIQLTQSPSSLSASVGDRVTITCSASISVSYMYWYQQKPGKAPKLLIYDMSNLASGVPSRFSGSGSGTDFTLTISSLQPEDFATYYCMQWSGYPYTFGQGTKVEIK")
0.00245
>>> reported_measurement("anti-IL-6 Fab, light chain S55I (Fab, V domains shown, built as m22 plus the named change) VH: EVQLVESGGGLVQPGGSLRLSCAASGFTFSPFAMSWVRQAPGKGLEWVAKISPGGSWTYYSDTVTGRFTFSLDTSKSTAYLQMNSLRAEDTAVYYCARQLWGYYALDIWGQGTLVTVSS VL: DIQLTQSPSSLSASVGDRVTITCSASISVSYMYWYQQKPGKAPKLLIYDMSNLAIGVPSRFSGSGSGTDFTLTISSLQPEDFATYYCMQWSGYPYTFGQGTKVEIK")
0.005
>>> reported_measurement("anti-IL-6 Fab, light chain S55T (Fab, V domains shown, built as m22 plus the named change) VH: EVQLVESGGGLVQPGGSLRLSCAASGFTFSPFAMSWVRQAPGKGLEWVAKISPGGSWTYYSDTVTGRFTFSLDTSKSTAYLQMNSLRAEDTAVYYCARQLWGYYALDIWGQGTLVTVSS VL: DIQLTQSPSSLSASVGDRVTITCSASISVSYMYWYQQKPGKAPKLLIYDMSNLATGVPSRFSGSGSGTDFTLTISSLQPEDFATYYCMQWSGYPYTFGQGTKVEIK")
0.0052
>>> reported_measurement("anti-IL-6 Fab, heavy chain Q99A (Fab, V domains shown, built as m22 plus the named change) VH: EVQLVESGGGLVQPGGSLRLSCAASGFTFSPFAMSWVRQAPGKGLEWVAKISPGGSWTYYSDTVTGRFTFSLDTSKSTAYLQMNSLRAEDTAVYYCARALWGYYALDIWGQGTLVTVSS VL: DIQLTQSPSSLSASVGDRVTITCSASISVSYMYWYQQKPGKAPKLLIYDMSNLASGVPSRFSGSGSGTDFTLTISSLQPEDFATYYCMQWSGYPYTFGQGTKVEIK")
0.00385
>>> reported_measurement("anti-IL-6 Fab, heavy chain S30V (Fab, V domains shown, built as m22 plus the named change) VH: EVQLVESGGGLVQPGGSLRLSCAASGFTFVPFAMSWVRQAPGKGLEWVAKISPGGSWTYYSDTVTGRFTFSLDTSKSTAYLQMNSLRAEDTAVYYCARQLWGYYALDIWGQGTLVTVSS VL: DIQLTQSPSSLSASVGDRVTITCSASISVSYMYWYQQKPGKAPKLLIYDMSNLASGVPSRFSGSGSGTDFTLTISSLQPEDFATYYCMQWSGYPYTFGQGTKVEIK")
0.00352
>>> reported_measurement("anti-IL-6 Fab, heavy chain S30G (Fab, V domains shown, built as m22 plus the named change) VH: EVQLVESGGGLVQPGGSLRLSCAASGFTFGPFAMSWVRQAPGKGLEWVAKISPGGSWTYYSDTVTGRFTFSLDTSKSTAYLQMNSLRAEDTAVYYCARQLWGYYALDIWGQGTLVTVSS VL: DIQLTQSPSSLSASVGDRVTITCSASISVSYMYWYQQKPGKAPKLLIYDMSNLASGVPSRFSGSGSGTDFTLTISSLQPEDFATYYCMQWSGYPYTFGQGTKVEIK")
0.00977
>>> reported_measurement("anti-IL-6 Fab, heavy chain Y103D (Fab, V domains shown, built as m22 plus the named change) VH: EVQLVESGGGLVQPGGSLRLSCAASGFTFSPFAMSWVRQAPGKGLEWVAKISPGGSWTYYSDTVTGRFTFSLDTSKSTAYLQMNSLRAEDTAVYYCARQLWGDYALDIWGQGTLVTVSS VL: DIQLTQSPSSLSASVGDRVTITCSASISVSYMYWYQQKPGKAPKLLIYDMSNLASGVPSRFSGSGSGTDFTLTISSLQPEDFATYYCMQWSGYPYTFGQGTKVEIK")
0.00503
>>> reported_measurement("anti-IL-6 Fab, heavy chain S30W (Fab, V domains shown, built as m22 plus the named change) VH: EVQLVESGGGLVQPGGSLRLSCAASGFTFWPFAMSWVRQAPGKGLEWVAKISPGGSWTYYSDTVTGRFTFSLDTSKSTAYLQMNSLRAEDTAVYYCARQLWGYYALDIWGQGTLVTVSS VL: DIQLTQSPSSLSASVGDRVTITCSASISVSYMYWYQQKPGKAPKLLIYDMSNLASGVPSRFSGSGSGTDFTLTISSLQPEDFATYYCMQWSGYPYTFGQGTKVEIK")
0.00869
>>> reported_measurement("anti-IL-6 Fab, light chain A54Y (Fab, V domains shown, built as m22 plus the named change) VH: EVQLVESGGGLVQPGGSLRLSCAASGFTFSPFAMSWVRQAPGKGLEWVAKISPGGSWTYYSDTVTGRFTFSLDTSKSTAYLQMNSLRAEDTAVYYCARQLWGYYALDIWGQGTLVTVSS VL: DIQLTQSPSSLSASVGDRVTITCSASISVSYMYWYQQKPGKAPKLLIYDMSNLYSGVPSRFSGSGSGTDFTLTISSLQPEDFATYYCMQWSGYPYTFGQGTKVEIK")
0.00529
